Reference source: PubChem BioAssay (NCI)

Tested on: KM12 colon
assay_notes: NCI-60 one-dose screen, 48 h (100 = growth as untreated, 0 = no growth, -100 = all killed)
experimental_parameters: 10 µM
Compounds without any hit were thinned out: in the full panel of roughly 83,000, 20% have a hit.
// classify: if (growth < 90%) MET else NOT MET

O=C1C(Cl)=C(Cl)C(Cl)(Cl)C(Cl)C1(Cl)Cl (configuration not stated)	NOT MET

Req: API: query returns whether the compound falls strictly under 90% in growth. Query: S=C1SCN(CCc2ccccc2)CN1CCc1ccccc1
Resp: NOT MET

----------
System: RPMI-8226 leukemia
assay_notes: NCI-60 one-dose screen, 48 h (100 = growth as untreated, 0 = no growth, -100 = all killed)
experimental_parameters: 10 µM
Description: Growth inhibition of the RPMI-8226 human tumor cell line is measured as a screen for anti-cancer activity. Cells are grown in 96 well plates and exposed to the test compound for 48 hours. Compounds are tested at a single concentration, which is 10^-5 M for most compounds. The reported endpoint is percent growth (GI% or GIPRCNT), where numbers from 0 - 100% represent growth inhibition, and numbers from -100% - 0 represent cell death. For example, a value of 40 represents 60% growth inhibition. […]
The panel holds about 83,000 compounds, 20% with a hit somewhere; the sample as a whole holds those more often. Activity calls are given as the source filed them. The calls were made as follows: active = growth percent below 10; inactive = the rest.
metric_name: growth

Answered cases to consult:
C=C1N(C)c2ccc(Cl)cc2C1(C)C	-13.2% (active)
O=c1[nH]cc(/C=N\Nc2ccccc2)c(=O)[nH]1	76.5% (inactive)
O=[N+]([O-])c1cc(S(=O)(=O)Nc2ccccc2)ccc1Cl	88.4% (inactive)
COc1cccc(C(c2cc3c(cc2O)OCO3)N2CCOCC2)c1OC (stereo unspecified)	105% (inactive)
Cc1cc(Cl)ccc1NC(=O)/C(Cl)=C1/Sc2ccccc2NC1=O	69.4% (inactive)
CCOC(=O)[C@]1(Br)CC[C@@]1(Br)C(=O)OCC	96.8% (inactive)
N#CC(=C1C=CC(=NO)C=C1)c1ccccc1	-13% (active)
O=C(O)c1ccccc1.[Ag]	96.9% (inactive)

# per-item lookup of growth; items listed below
1. O=C1C=CC(=O)N1c1ccc(N2C(=O)C=CC2=O)cc1
2. Cc1cc(O)c2c(c1O)C(=O)C13C(=C2O)C(=O)C2C(O)C1C1C(O)C3C(=O)C3=C(O)c4c(O)cc(C)c(O)c4C(=O)C321 (stereo unspecified)
3. COc1ccc2oc(-c3ccc(Cl)cc3)c(N3CCN(C)CC3)c2c1

Resp:
["38.6% (inactive)", "-4.03% (active)", "-10.3% (active)"]

----------
Please provide measured growth for the entries that follow.
Test system: MOLT-4 leukemia
assay_notes: NCI-60 one-dose screen, 48 h (100 = growth as untreated, 0 = no growth, -100 = all killed)
experimental_parameters: 10 µM unless noted
Compounds without any hit were thinned out: in the full panel of roughly 83,000, 20% have a hit.
Give bare numbers, in %.

O=S(=O)(c1cc(Cl)ccc1O)c1cc(Cl)ccc1O	90.2
Cn1ncc2cc3c(Nc4ccc(Cl)cc4)cccc3nc21	89

# per-item lookup of growth; items listed below
1. C=C1N(C)c2ccc(Cl)cc2C1(C)C
2. O=C(O)c1ccccc1.[Ag]
3. CN(C)c1ccc(/C=C/c2ccnc3ccccc23)cc1N
4. O=Nc1ccc(Nc2ccccc2)cc1
5. S=C1SCN(CCc2ccccc2)CN1CCc1ccccc1

Resp:
[35.8, 102, 54.8, 15, 76.8]

----------
Please provide measured growth for the entries that follow.
System: SK-OV-3 ovarian
assay_notes: NCI-60 one-dose screen, 48 h (100 = growth as untreated, 0 = no growth, -100 = all killed)
experimental_parameters: 10 µM
This is part of a sample that, as a whole, favours compounds with a hit. Of some 83,000 tested, about 20% had one in any assay.
Answers are plain numbers, in %.

Answered cases to consult:
Cc1cc(O)c2c(c1O)C(=O)C13C(=C2O)C(=O)C2C(O)C1C1C(O)C3C(=O)C3=C(O)c4c(O)cc(C)c(O)c4C(=O)C321 (configuration not stated)	-13.1
CC1CCC2(C(=O)O)CCC3(C)C(=CCC4C5(C)CC(O)C(O)C(C)(CO)C5C(O)CC43C)C2C1C (configuration not stated)	103
COc1cccc(C(c2cc3c(cc2O)OCO3)N2CCOCC2)c1OC (configuration not stated)	101
COc1ccc2oc(-c3ccc(Cl)cc3)c(N3CCN(C)CC3)c2c1	55.1

# per-item lookup of growth; items listed below
1. Cn1ncc2cc3c(Nc4ccc(Cl)cc4)cccc3nc21
2. Nc1nc(N)c2cc(Sc3ccc4ccccc4c3)ccc2n1
3. N#C/C(=C/N1C(=O)/C(=C/c2ccc([N+](=O)[O-])cc2)SC1=S)c1nc2ccccc2s1

Resp:
94.7
62.3
82.4

----------
Please provide measured growth for the entries that follow.
Test system: HCT-116 colon
assay_notes: NCI-60 one-dose screen, 48 h (100 = growth as untreated, 0 = no growth, -100 = all killed)
experimental_parameters: 10 µM
About 83,000 compounds went through this panel and 20% of them were active in at least one assay; those are over-represented in the sample as a whole.
Answers are plain numbers, in %.

COc1ccc2c(c1)[nH]c1c(/C=C/c3ccccc3)nccc12	29.9

# per-item lookup of growth; items listed below
1. N#C/C(=C/N1C(=O)/C(=C/c2ccc([N+](=O)[O-])cc2)SC1=S)c1nc2ccccc2s1
2. COc1ccc(C(C#N)=C2C=CC(=NO)C=C2)cc1
3. COc1cc(N)ccc1Nc1c2ccccc2nc2ccccc12
4. O=C1c2ccccc2CCC1(Br)Br
5. O=C1C=CC(=O)N1c1ccc(N2C(=O)C=CC2=O)cc1
6. O=C1c2cccc3cc([N+](=O)[O-])cc(c23)C(=O)N1CCN1CCCC1
7. CN(C)c1ccc(/C=C/c2ccnc3ccccc23)cc1N

Resp:
1: 85.9; 2: -37.2; 3: -88.5; 4: -90; 5: 98.3; 6: -37.6; 7: 49.3

# per-item lookup of growth; items listed below
1. Cn1ncc2cc3c(Nc4ccc(Cl)cc4)cccc3nc21
2. CN(CC(=O)O)c1ccc(/C=C/c2ccnc3ccccc23)cc1
3. NCc1c(O)ccc2ccccc12

Resp:
[85.6, 89.4, 102]

Req: Field request: growth | item: CCC(C)(c1ccc(O)c(C)c1)c1ccc(O)c(C)c1
Resp: 94

----------
Test system: M14 melanoma
assay_notes: NCI-60 one-dose screen, 48 h (100 = growth as untreated, 0 = no growth, -100 = all killed)
experimental_parameters: 10 µM unless noted
About 83,000 compounds went through this panel and 20% of them were active in at least one assay; those are over-represented in the sample as a whole.
metric_name: growth (%)
Numbers only, in %.

Answered cases to consult:
Nc1nc(N)c2cc(Sc3ccc4ccccc4c3)ccc2n1	16.4
CN(C)CCNc1cccc2sc3ccc(O)cc3c(=O)c12	53.8
O=C(O)c1ccccc1.[Ag]	96.4
CCC(C)(c1ccc(O)c(C)c1)c1ccc(O)c(C)c1	91.6
COc1ccc(C(C#N)=C2C=CC(=NO)C=C2)cc1	79.1

# per-item lookup of growth; items listed below
1. O=C1C(Cl)=C(Cl)C(Cl)(Cl)C(Cl)C1(Cl)Cl (stereo unspecified)
2. CCOC(=O)[C@]1(Br)CC[C@@]1(Br)C(=O)OCC
3. COc1ccc2c(c1)[nH]c1c(/C=C/c3ccccc3)nccc12
4. CN(C)c1ccc(/C=C/c2ccnc3ccccc23)cc1N

Resp:
103
86.6
71.4
73.9

# per-item lookup of growth; items listed below
1. O=Nc1ccc(Nc2ccccc2)cc1
2. S=C1SCN(CCc2ccccc2)CN1CCc1ccccc1

Resp:
1: 89.7; 2: 120

----------
Tested on: SR leukemia
assay_notes: NCI-60 one-dose screen, 48 h (100 = growth as untreated, 0 = no growth, -100 = all killed)
experimental_parameters: 10 µM
About 83,000 compounds went through this panel and 20% of them were active in at least one assay; those are over-represented in the sample as a whole.
metric_name: growth (%)
One number for each entry, in %.

N#C/C(=C/N1C(=O)/C(=C/c2ccc([N+](=O)[O-])cc2)SC1=S)c1nc2ccccc2s1	73.8
O=C1C(Cl)=C(Cl)C(Cl)(Cl)C(Cl)C1(Cl)Cl (centres undefined)	90.2
COc1ccc(C(C#N)=C2C=CC(=NO)C=C2)cc1	49.8

Moving on to the next molecule.
Req: Field request: growth | item: COc1cc(N)ccc1Nc1c2ccccc2nc2ccccc12
Resp: 10.1

----------
Test system: BT-549 breast
assay_notes: NCI-60 one-dose screen, 48 h (100 = growth as untreated, 0 = no growth, -100 = all killed)
experimental_parameters: 10 µM
About 83,000 compounds went through this panel and 20% of them were active in at least one assay; those are over-represented in the sample as a whole.
Please provide measured growth for the entries that follow.
Numbers only, in %.

Answered cases to consult:
ClCCn1c(CCl)nc2ccc(Cl)cc21	-66.2
NCc1c(O)ccc2ccccc12	101
Cn1ncc2cc3c(Nc4ccc(Cl)cc4)cccc3nc21	97.4

# per-item lookup of growth; items listed below
1. COc1ccc(C(C#N)=C2C=CC(=NO)C=C2)cc1
2. CN(C)c1ccc(/C=C/c2ccnc3ccccc23)cc1N
3. C=C1N(C)c2ccc(Cl)cc2C1(C)C

Resp:
1. 106
2. 60.3
3. 66.9

# per-item lookup of growth; items listed below
1. N#CC(=C1C=CC(=NO)C=C1)c1ccccc1
2. O=C1c2cccc3cc([N+](=O)[O-])cc(c23)C(=O)N1CCN1CCCC1
3. CC(=O)O[C@H]1C(=O)[C@@]2(C)[C@H]([C@H](OC(=O)c3ccccc3)[C@]3(O)C[C@H](OC(=O)[C@H](O)[C@@H](NC(=O)c4ccccc4)c4ccccc4)C(C)=C1C3(C)C)[C@]1(OC(C)=O)CO[C@@H]1C[C@@H]2O
4. COc1ccc2c(c1)[nH]c1c(/C=C/c3ccccc3)nccc12
5. O=Nc1ccc(Nc2ccccc2)cc1
6. O=C(O)c1ccccc1.[Ag]
7. Cc1cc(N=C2C=CC(=[N+](C)C)C=C2)c(N)cc1N
8. Cc1cc(O)c2c(c1O)C(=O)C13C(=C2O)C(=O)C2C(O)C1C1C(O)C3C(=O)C3=C(O)c4c(O)cc(C)c(O)c4C(=O)C321 (stereo unspecified)

Resp:
1. -7.31
2. 3.71
3. 6.6
4. 61.8
5. 78.8
6. 99.4
7. 96.3
8. -53.3

# per-item lookup of growth; items listed below
1. Cc1cc(Cl)ccc1NC(=O)/C(Cl)=C1/Sc2ccccc2NC1=O
2. CCC(C)(c1ccc(O)c(C)c1)c1ccc(O)c(C)c1

Resp:
[115, 192]
